Recorded self-cleavage values for a group of variants are listed next.
B1: Hairpin Ribozyme (parent)
chain: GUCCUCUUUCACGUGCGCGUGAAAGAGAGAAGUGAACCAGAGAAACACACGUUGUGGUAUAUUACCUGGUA

# Variants of: B1
# MEASUREMENT DESCRIPTION: self-cleavage, relative activity (ratio to wild type); higher = more cleavage; co-transcriptional
Give your answer as a number; write no unit.

Solved entries (count: 6):
U33G U53C    0.204
A26G A71G    0.935
G21C A39U    0.46
G21C A36U    0.566
G19A U20A    0.762
C12U C16U    0.916

-- ask Dear colleague, I am looking for the recorded self-cleavage of the following variant: G19A G29C
-- reply 0.184

-- ask Now this one: G1U C10A
-- reply 0.151

-- ask Try this variant next: G25C G29C
-- reply 0.166

-- ask How about this variant: A44C U58A
-- reply 0.0929

-- ask // same read-out, input: C10A G68A
-- reply 0.177

-- ask Please give the result for G25C G54C too.
-- reply 0.139

-- ask Check C6A A35C too.
-- reply 0.695

-- ask Next entry: U5C A24C
-- reply 0.483

-- ask Same question, A31U A36C this time
-- reply 0.197
